test: Cytotoxicity against human MT4 cells assessed as reduction in cell viability after 5 days by MTT assay; type: cell-based
Each entry below carries its recorded CC50 at 120 h.
Write the value in µM as a bare number.

Some solved cases for reference:
{"molecule": "CC(C)Nc1cccnc1N1CCN(C(=O)c2cc3cc(NS(C)(=O)=O)ccc3[nH]2)CC1 [DELAVIRDINE]", "endpoint value": 23}
{"molecule": "COc1ccccc1COc1ccnc(Nc2ccc(C#N)cc2)n1", "endpoint value": 8.9}
{"molecule": "Cc1cccc(COc2ccnc(Nc3ccc(C#N)cc3)n2)c1", "endpoint value": 30}

**Query** Endpoint output: CC50 at 120 h of N#Cc1ccc(Nc2nccc(OCc3ccc(F)cc3)n2)cc1 . Value?
**Result** 81

**Query** Same for N#Cc1ccc(Nc2nccc(OCc3ccccc3C#N)n2)cc1
**Result** 113

**Query** Moving on to N#Cc1ccc(COc2ccnc(Nc3ccc(C#N)cc3)n2)cc1
**Result** 209
